Let's look at some binders and their measured HEK-Blue activity, +100 nM BP, DF-10000.
# Measured On: T1, interleukin 18 binding protein (IL-18BP) (UniProt O95998 31-194)
# T1 sequence (looked up): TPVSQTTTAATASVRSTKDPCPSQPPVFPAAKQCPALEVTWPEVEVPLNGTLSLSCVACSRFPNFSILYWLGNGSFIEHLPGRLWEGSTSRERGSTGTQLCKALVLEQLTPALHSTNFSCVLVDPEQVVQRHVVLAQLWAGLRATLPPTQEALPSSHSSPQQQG
# Procedure Details: cell-based or functional assay; further: unit not given here
# respond with the number and nothing more

Binder: IL-18 variant T34N, S36Y, D37E, D40Q, N41Q, K53D, S55D (ligand) YFGKLESKLSVIRNLNDQVLFIDQGNRPLFEDMNDYEMRQQAPRTIFIISMYDDDQPRGMAVTISVKSEKISTLSSENKIISFKEMNPPDNIKDTKSDIIFFQRSVPGHDNKMQFESSSYEGYFLASEKERDLFKLILKKEDELGDRSIMFTVQNED
Result: 0.1
//
Binder: IL-18 variant L15I, K53H, S55M (ligand) YFGKLESKLSVIRNINDQVLFIDQGNRPLFEDMTDSDMRDNAPRTIFIISMYHDMQPRGMAVTISVKSEKISTLSSENKIISFKEMNPPDNIKDTKSDIIFFQRSVPGHDNKMQFESSSYEGYFLASEKERDLFKLILKKEDELGDRSIMFTVQNED
Result: 0.12

Next up:
Look up HEK-Blue activity, +100 nM BP, DF-10000 for this binder: IL-18 variant K53Y, S55G, Q56H (ligand) YFGKLESKLSVIRNLNDQVLFIDQGNRPLFEDMTDSDMRDNAPRTIFIISMYYDGHPRGMAVTISVKSEKISTLSSENKIISFKEMNPPDNIKDTKSDIIFFQRSVPGHDNKMQFESSSYEGYFLASEKERDLFKLILKKEDELGDRSIMFTVQNED
0.3
